What follows is a record of IC50 for Human Factor XIIa (Homo sapiens (Human), UniProt P00748).

# annotated cases, reported IC50 shown
compound: CCc1nc(N2CCn3c(nnc3C(F)(F)F)C2)ccc1CNc1cccc2c(N)nccc12 [Example 1336]
experimentalReadout: IC50
recordedValue: 0.3 to 1 µM

compound: CCC1c2nnc(C(F)(F)F)n2CCN1c1cc(C)c(CNc2cccc3c(N)nccc23)cn1 (centres unmarked) [Example 1331]
experimentalReadout: IC50
recordedValue: 0.1 to 0.3 µM

compound: CN1C[C@H](COc2cc(CNc3cccc4c(N)nccc34)ccn2)OC1=O [Example 4280]
experimentalReadout: IC50
recordedValue: 10 to 40 µM

compound: Nc1nccc2c(NCc3cnc(N4CCn5c(nnc5C(F)(F)F)C4)c(CO)c3)cccc12 [Example 1335]
experimentalReadout: IC50
recordedValue: 10 to 40 µM

In the following, a different compound is considered.
# value of IC50, Human Factor XIIa (Homo sapiens (Human), UniProt P00748), item Nc1nccc2c(NCc3ccc(OCC4CCn5ccnc5C4)nc3)cccc12 (single isomer, unassigned) [Example 1030] = 0.3 to 1 µM

---

target: Plasma Kallikrein (Homo sapiens (Human)); assay: Determination of related protease inhibition: Plasma Kallikrein (fluorogenic substrate at Km); details: 25° C., read-out: IC50 (human PKal)
experimentalReadout: IC50

molecule: CN1CCC(CNc2ccc(CNc3ccc(N(C)C)nn3)cn2)CC1 [Example 1186]
IC50: > 100 µM
--
molecule: CN1CCC(CNc2ccc(CNc3ccc(F)c4cnccc34)cn2)CC1 [Example 1214]
IC50: > 100 µM
--
molecule: CN1CC2(CC(OCc3ccc(CNc4cccc5c(N)nccc45)c(F)c3)C2)C1 [Example 2206]
IC50: 10 to 40 µM
--
molecule: CN1CC(OCc2ccc(CNc3cccc4c(N)nccc34)c(F)c2)CCC1=O (stereo not shown) [Example 2209]
IC50: > 40 µM
--
molecule: FC(F)(F)c1nnc2n1CCN(c1ccc(CNc3ccnc4[nH]c(Cl)cc34)cn1)C2 [Example 1280]
IC50: > 40 µM

Please look at the following molecule next.
Form field IC50, entry Nc1ncc(F)c2cc(NCc3ccnc(OCC4CCn5ccnc5C4)c3)ccc12 (stereo not shown) [Example 4307] : > 4 µM

---

This section lists pIC50 readings for FXa (Homo sapiens (Human)).
pIC50: −log10 of the molar value.

// worked examples, pIC50 included
compound: CN1CCC(CNc2ccc(CNc3ccc4c(N)nccc4c3)cn2)CC1
pIC50: 5.00 to 5.52

compound: Nc1ncc(Cl)c2cc(NCc3ccnc(OCC4CCn5ccnc5C4)c3)ccc12 (single isomer, unassigned)
pIC50: 4.40 to 5.00

Value of measured pIC50 for the entry "CC(C)N1CCC(CN(CCCO)C(=O)c2cccc(CNc3cccc4c(N)nccc34)c2)CC1" : < 4.40

---

Measured IC50 values are reported for all entries that follow.
biological target: Plasma Kallikrein (Homo sapiens (Human), UniProt P03952); test: Determination of related protease inhibition: Plasma Kallikrein (fluorogenic substrate at Km); details: 25° C., read-out: IC50 (human PKal)
Sequence (P03952 391-638): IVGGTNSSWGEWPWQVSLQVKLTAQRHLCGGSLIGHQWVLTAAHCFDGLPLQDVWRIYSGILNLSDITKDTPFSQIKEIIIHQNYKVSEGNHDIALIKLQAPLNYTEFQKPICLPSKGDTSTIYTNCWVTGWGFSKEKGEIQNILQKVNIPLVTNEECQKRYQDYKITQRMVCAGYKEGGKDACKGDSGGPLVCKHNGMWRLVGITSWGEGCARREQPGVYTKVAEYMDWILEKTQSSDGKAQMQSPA
Sequence (P03952 20-390 partner): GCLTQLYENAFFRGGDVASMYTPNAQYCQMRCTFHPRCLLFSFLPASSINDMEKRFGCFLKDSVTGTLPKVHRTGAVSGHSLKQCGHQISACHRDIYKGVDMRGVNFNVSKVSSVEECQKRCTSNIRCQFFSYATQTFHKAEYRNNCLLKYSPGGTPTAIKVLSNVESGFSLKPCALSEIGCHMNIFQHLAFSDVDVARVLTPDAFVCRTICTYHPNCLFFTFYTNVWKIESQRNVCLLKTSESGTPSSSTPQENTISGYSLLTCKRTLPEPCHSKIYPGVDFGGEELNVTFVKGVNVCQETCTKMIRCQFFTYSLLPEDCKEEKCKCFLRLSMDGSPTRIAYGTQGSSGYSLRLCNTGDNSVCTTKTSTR

smilesRepr: CN1CCN(CCc2ccc(CNc3ccc4c(N)ncc(Cl)c4c3)c(F)c2)CC1
experimentalReadout: IC50
recordedValue: > 40 µM
//
smilesRepr: COc1ccc2cc(NCc3ccc(NCC4CCN(C)CC4)nc3)ccc2c1
experimentalReadout: IC50
recordedValue: > 100 µM
//
smilesRepr: CCN1CCC(OCc2ccc(CNc3ccc4c(N)nccc4c3)c(F)c2)CC1
experimentalReadout: IC50
recordedValue: 1 to 3 µM

Continue with the next molecule.
Summary for this molecule, "COc1ccc2ncc(NCc3ccc(NCC4CCN(C)CC4)nc3)cc2c1" : IC50 is > 100 µM

---

Assay: Pharmacokinetics following a single intravenous dose and a single oral dose in male Sprague-Dawley rats (oral bioavailability, half-life)
Format: in vivo
Conditions: rat, plasma, 10% DMSO/10% Cremophor EL/80% SWFI, read-out: F % (oral bioavailability)
Method: Pharmacokinetic studies of the compounds in Table 16 were performed to assess the pharmacokinetics following a single intravenous dose and a single oral dose in male Sprague-Dawley rats. Two rats were given a single intravenous dose of 1 mL/kg of a nominal 1 mg/mL (1 mg/kg) composition of test compound in 10% DMSO/10% Cremophor EL/80% SWFI vehicle. […] Following collection, blood samples were centrifuged and the plasma fraction analysed for concentration of test compound by LCMS. […]
experimentalReadout: bioavailability (%)
Just the number please, in %, no unit attached.

See these solved cases before continuing.
compound: Cc1cc(N2CCn3c(nnc3C(F)(F)F)C2)ncc1CNc1cccc2c(N)nccc12 [Example 1282]
experimentalReadout: bioavailability
recordedValue: 53.2

compound: Cn1ccc(COc2cc(CNc3cccc4c(N)nccc34)ccn2)cc1=O [Example 4301]
experimentalReadout: bioavailability
recordedValue: 8.5

Let's switch to this compound now.
Reported bioavailability of Nc1nccc2c(NCc3ccc(OCC4CCn5ccnc5C4)nc3)cccc12 (single isomer, unassigned) [Example 1029] : 9.7

---

molecular target: Plasma Kallikrein (Homo sapiens (Human)); experiment: Determination of related protease inhibition: Plasma Kallikrein (fluorogenic substrate at Km); settings: 25° C., read-out: IC50 (human PKal)
# IC50 values compiled below

compound: Cc1cn2c(n1)CC(COc1cc(CNc3ccc4c(N)ncc(Cl)c4c3)ccn1)CC2 (centres unmarked) [Example 4309]
IC50: > 4 µM

Kindly note the recorded IC50 for CC1CN(c2ccc(CNc3cccc4c(N)nccc34)cn2)Cc2nnc(C(F)(F)F)n21 (single isomer, unassigned) [Example 1296] , which is 10 to 40 µM

// IC50 lookup, compound = "CN1CCC(COc2cc(CNc3ccc(N(C)C)nn3)ccn2)CC1" , result: > 100 µM

Kindly note the recorded IC50 for "COc1cccc2sc(NCc3ccc(NCC4CCN(C)CC4)nc3)nc12" , which is > 100 µM

compound "CN1CCC(COc2cc(CNc3ccc4cnccc4c3)ccn2)CC1" , IC50 observed: 10 to 40 µM

---

target: FXa (Homo sapiens (Human)); experiment: Determination of related protease inhibition: FXa (fluorogenic substrate at Km); format: biochemical; settings: 25° C.
Sequence (P00742 235-488): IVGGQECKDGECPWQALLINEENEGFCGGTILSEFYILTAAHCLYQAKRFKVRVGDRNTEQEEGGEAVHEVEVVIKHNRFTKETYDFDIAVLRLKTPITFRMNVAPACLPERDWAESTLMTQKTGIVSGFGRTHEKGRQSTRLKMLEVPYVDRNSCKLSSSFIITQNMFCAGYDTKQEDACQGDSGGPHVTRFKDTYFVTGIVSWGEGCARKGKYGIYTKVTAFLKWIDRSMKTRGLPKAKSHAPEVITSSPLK
Sequence (P00742 41-179 partner): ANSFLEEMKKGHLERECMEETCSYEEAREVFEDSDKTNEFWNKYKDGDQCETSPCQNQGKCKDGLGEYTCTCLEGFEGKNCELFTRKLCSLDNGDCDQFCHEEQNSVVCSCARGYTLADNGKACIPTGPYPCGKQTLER
pIC50: −log10 of the molar value.
experimentalReadout: pIC50

Here's what some known entries look like.
compound: CN1CCC(OCc2ccc(CNc3ccc4c(N)nccc4c3)c(Cl)c2)CC1 [Example 2192]
pIC50: 5.52 to 6.00
//
compound: Nc1nccc2c(NCc3ccc(N4CCn5ccnc5C4)nc3)cccc12 [Example 1128]
pIC50: < 4.40
//
compound: CN1CC2CC1CC2COc1cc(CNc2ccc3c(N)nccc3c2)ccn1 (centres unmarked) [Example 4277]
pIC50: 6.00 to 6.52
//
compound: CN1CCC(CNc2ccc(CNc3cncc4[nH]ccc34)cn2)CC1 [Example 1213]
pIC50: < 4.40
//
compound: CN1CCC(COc2cc(CNc3ccc4c(N)ncc(Cl)c4c3)ccn2)CC1 [Example 4268]
pIC50: 5.00 to 5.52
//
compound: CC1CN(c2ccc(CNc3cccc4c(N)nccc34)cn2)Cc2nnc(C(F)(F)F)n21 (single isomer, unassigned) [Example 1297]
pIC50: < 4.40
//
compound: Nc1nccc2c(NCc3cnc(N4CCn5c(nnc5C(F)(F)F)C4)cc3C(F)(F)F)cccc12 [Example 1301]
pIC50: < 4.40
//
compound: CN1CC2CCC(C1)C2COc1cc(CNc2cccc3c(N)nccc23)ccn1 (centres unmarked) [Example 4278]
pIC50: 5.52 to 6.00
//
compound: Cc1cc2c(NCc3ccc(NCC4CCN(C)CC4)nc3)ccnc2[nH]1 [Example 1202]
pIC50: 4.40 to 5.00
//
compound: Cc1cc(N2CCn3c(nnc3C(F)(F)F)C2)ncc1CNc1cccc2c(N)nccc12 [Example 1282]
pIC50: < 5.40

For Nc1nccc2c(NCc3ccc(OCC4CCn5ccnc5C4)nc3)cccc12 (single isomer, unassigned) [Example 1029] the compound record lists pIC50 as 4.40 to 5.00

In plain terms, Nc1nccc2c(NCc3cnc(N4CCn5c(nnc5C(F)(F)F)C4)cc3Cl)cccc12 [Example 1299] has a documented pIC50 of < 4.40

Recorded result, CN1CC2(CC(OCc3ccc(CNc4cccc5c(N)nccc45)c(F)c3)C2)C1 [Example 2206] , pIC50: < 4.40

The recorded pIC50 for entry CN1CCC(CCn2cc(CNc3ccc4c(N)nccc4c3)cn2)CC1 [Example 3254] equals 5.00 to 5.52

Memo: CN1CCC(COc2cc(CNc3cccc4c(N)nccc34)ccn2)CC1 [Example 4260] , reported pIC50: < 4.70

Summary for this compound, CN1CCN(CCc2ccc(CNc3cccc4c(N)nccc34)c(F)c2)CC1 [Example 2182] : pIC50 is < 4.40

The recorded pIC50 for entry Cn1ccnc1CCOCc1ccc(CNc2cccc3c(N)nccc23)c(F)c1 [Example 2208] equals 4.40 to 5.00

Note to self: pIC50 recorded for CC(=O)N1CC2CC1CC2COc1cc(CNc2cccc3c(N)nccc23)ccn1 (centres unmarked) [Example 4274] was 5.52 to 6.00

For this compound ( Cn1ccnc1CC(=O)NCc1ccc(CNc2cccc3c(N)nccc23)c(F)c1 [Example 2211] ), measured pIC50 is < 4.40

Sample CN1CCC(OCc2ccc(CNc3ccc4c(N)nccc4c3)c(F)c2)CC1 [Example 2191] ; pIC50 observed: 4.40 to 5.00

The value of pIC50 measured for the compound CN1CCC(CCc2ccc(CNc3ccc4c(N)nccc4c3)cc2)CC1 [Example 2177] turned out to be 5.00 to 5.52

Summary for this compound, CN1CCN(CCc2ccc(CNc3ccc4c(N)ncc(Cl)c4c3)c(F)c2)CC1 [Example 2184] : pIC50 is < 4.40

Entry CN1CCN(CCc2ccc(CNc3ccc4c(N)nccc4c3)c(F)c2)CC1 [Example 2181] — recorded pIC50 = 4.40 to 5.00
